Sourced from ChEMBL document CHEMBL3507680

assay: Human HepG2 cell viability assay in 384 well format; format: toxicity, cell-based; set-up: dose 125 nL, time 70.5 hour; concentration not given beside the values; conditions: HepG2 cells, read-out: Inhibition
cytotoxicity at 70.5 h overview

{"compound": "CC(C)N1CCC2(CC1)CC(NCc1ccccn1)c1ccccc1O2 (centres undefined)", "quantityUnit": "%", "cytotoxicity at 70.5 h": -0.344}
{"compound": "CC(C)COCCC(=O)Nc1ccc2oc(=O)n(CCN(C)C)c2c1", "quantityUnit": "%", "cytotoxicity at 70.5 h": 17.6}
{"compound": "Cc1c(C(=O)N2CCN(c3ncccn3)CC2)n(C)c2ccc(Cl)cc12", "quantityUnit": "%", "cytotoxicity at 70.5 h": -7.85}
{"compound": "COc1ccc(OC)c(C(C)NS(=O)(=O)c2cn(C)nc2C)c1 (centres undefined)", "quantityUnit": "%", "cytotoxicity at 70.5 h": -3.29}
{"compound": "Clc1cc(N2CCC(N3CCCC3)CC2)nc2[nH]ccc12", "quantityUnit": "%", "cytotoxicity at 70.5 h": -2.57}
{"compound": "CCN(CC)c1ncnc2c(C)nn(CC)c12", "quantityUnit": "%", "cytotoxicity at 70.5 h": -0.883}
{"compound": "NC(CC1CCCC1)c1ccc(Oc2ccccc2)cc1 (centres undefined)", "quantityUnit": "%", "cytotoxicity at 70.5 h": 99}
{"compound": "CC(C)OCCSc1nnnn1C1CCOCC1", "quantityUnit": "%", "cytotoxicity at 70.5 h": -8.16}
{"compound": "Cn1cc(NC(=O)N2CCC(Cc3ccccc3)CC2)ccc1=O", "quantityUnit": "%", "cytotoxicity at 70.5 h": -2.61}
{"compound": "COC(=O)C(C)(C)NC(=O)C1CC(=O)N(CC(F)(F)F)C1 (centres undefined)", "quantityUnit": "%", "cytotoxicity at 70.5 h": 0.904}
{"compound": "CC[C@H](C)[C@H](N)C(=O)Nc1nc(-c2cnc(N3CCOCC3)nc2)cs1", "quantityUnit": "%", "cytotoxicity at 70.5 h": -1.59}
{"compound": "COCCC1(CO)CCCN(C(=O)c2cc(Cl)ccc2F)C1 (centres undefined)", "quantityUnit": "%", "cytotoxicity at 70.5 h": -11}
{"compound": "Nc1nccnc1CC1CCCN(Cc2ccnc3ccccc23)C1 (centres undefined)", "quantityUnit": "%", "cytotoxicity at 70.5 h": 27.7}
{"compound": "Cc1nccc(CNS(=O)(=O)N2CCCC2c2ccc(C)o2)n1 (centres undefined)", "quantityUnit": "%", "cytotoxicity at 70.5 h": -9.86}
{"compound": "CCCS(=O)(=O)N1CCC2(CCN(Cc3cccc(F)c3)C2=O)C1 (centres undefined)", "quantityUnit": "%", "cytotoxicity at 70.5 h": 36.3}
{"compound": "Cc1cc(C(=O)N[C@H]2CC[C@@]3(CCC(=O)N3C)CC2)no1", "quantityUnit": "%", "cytotoxicity at 70.5 h": -9.34}
{"compound": "Cc1noc(C(C)C)c1C(=O)NS(=O)(=O)c1cccnc1", "quantityUnit": "%", "cytotoxicity at 70.5 h": 17.5}
{"compound": "CN(Cc1ccc(-n2cccn2)cc1)C[C@@H]1CCCN2CCCC[C@H]12", "quantityUnit": "%", "cytotoxicity at 70.5 h": 24.9}
{"compound": "CCc1ncc(C(=O)N2CCCC2Cn2cccn2)s1 (centres undefined)", "quantityUnit": "%", "cytotoxicity at 70.5 h": 12.3}
{"compound": "C[C@@H]1CN(S(=O)(=O)N2CCCC2)C[C@@]1(O)C1CC1", "quantityUnit": "%", "cytotoxicity at 70.5 h": -4.68}
{"compound": "CN(C)C(=O)COCc1nn(C)c2c1CCN(Cc1ccco1)C2", "quantityUnit": "%", "cytotoxicity at 70.5 h": -5.57}
{"compound": "COCCN(CCN(C)C)C(=O)NC1CCc2ccccc2C1 (centres undefined)", "quantityUnit": "%", "cytotoxicity at 70.5 h": -5.75}
{"compound": "CCCN(CCC)C(=O)Cn1c(SC)nc2ccsc2c1=O", "quantityUnit": "%", "cytotoxicity at 70.5 h": -0.333}
{"compound": "O[C@@H]1C[C@@H](c2nc(-c3ccccc3)no2)N(C2CCOCC2)C1", "quantityUnit": "%", "cytotoxicity at 70.5 h": -3.47}
{"compound": "O=S(=O)(c1cccs1)N1CC[C@@H](O)[C@@H]1Cc1ccncc1", "quantityUnit": "%", "cytotoxicity at 70.5 h": 18}
{"compound": "CCc1nc2n(n1)CC(NCc1ccnc(-c3ccccc3)n1)CC2 (centres undefined)", "quantityUnit": "%", "cytotoxicity at 70.5 h": -10}
{"compound": "CCN1CC(C(=O)N2CCC(Oc3ccccc3C)CC2)CC1=O (centres undefined)", "quantityUnit": "%", "cytotoxicity at 70.5 h": -7.02}
{"compound": "CN(Cc1ccccc1F)C(=O)c1cc(Cl)c[nH]1", "quantityUnit": "%", "cytotoxicity at 70.5 h": -2.89}
{"compound": "CC(C)(C)OC(=O)N1CCN(S(C)(=O)=O)C2(CCCCC2)C1", "quantityUnit": "%", "cytotoxicity at 70.5 h": -1.8}
{"compound": "N#Cc1cccc(S(=O)(=O)N2CCCCC2C(N)=O)c1 (centres undefined)", "quantityUnit": "%", "cytotoxicity at 70.5 h": -3.12}
{"compound": "OC(CN1CCN(Cc2nnc(C3CC3)o2)CC1)c1ccccc1 (centres undefined)", "quantityUnit": "%", "cytotoxicity at 70.5 h": -20.3}
{"compound": "CC(C)c1ncc(Cl)c(C(=O)N2CCCN3CCCC3C2)n1 (centres undefined)", "quantityUnit": "%", "cytotoxicity at 70.5 h": -0.691}
{"compound": "COc1ccc(C(CC(=O)O)NC(=O)CCc2cccs2)cc1OC (centres undefined)", "quantityUnit": "%", "cytotoxicity at 70.5 h": 4.75}
{"compound": "COc1cccc(-c2nc(C)c(C(=O)N[C@H](CO)CC(C)C)s2)c1", "quantityUnit": "%", "cytotoxicity at 70.5 h": -22.7}
